- assay_name: physchem
- cond: 37 °C, aqueous with cosolvent or surfactant or cyclodextrin, thermodynamic from solid
reported_metric: solubility at 24 h (µg/mL)
Numbers only; they are read as µg/mL.

Data request: What measured solubility at 24 h goes with O=C(Nc1ccc([N+](=O)[O-])cc1Cl)c1cc(Cl)ccc1O [NCL, 2',5-dichloro-4'-nitrosalicylanilide] ?
Data returned: 87.2
